Tested on: avoidance behavior
protocol: Discrete Avoidance - Rats (avoidance block / escape block)
Format: in vivo, rat
conditions: Rattus norvegicus; 40 mg/kg po, at time of peak effect; read-out: Avoidance block at Time of Peak Effect (AB)
Where a name gives a salt, the structure may show the parent alone.
reported_endpoint: inhibition in vivo at 40 mg/kg

[[record]]
compound = "CNCCCOc1ccc(OCCN2CCN(CCCN3c4ccccc4Sc4ccc(Cl)cc43)CC2)cc1.Cl.Cl.Cl [trihydrochloride]"
result = "100%"

[[record]]
compound = "CN(C)CCCOc1ccc(OCCN2CCN(CCCN3c4ccccc4Sc4ccc(Cl)cc43)CC2)cc1.Cl.Cl.Cl [trihydrochloride]"
result = "100%"

[[record]]
compound = "CC(C)NCCCCCCOc1ccc(OCCN2CCN(CCCN3c4ccccc4Sc4ccc(Cl)cc43)CC2)cc1 [trihydrochloride]"
result = "40%"

[[record]]
compound = "CC(C)NC[C@H](O)COc1ccc(OCCN2CCN(CCCN3c4ccccc4Sc4ccc(Cl)cc43)CC2)cc1.Cl.Cl.Cl [Compound A, trihydrochloride]"
result = "90%"

[[record]]
compound = "CC(C)NCCCCOc1ccc(OCCN2CCN(CCCN3c4ccccc4Sc4ccc(Cl)cc43)CC2)cc1.Cl.Cl.Cl [trihydrochloride]"
result = "97 to 100%"

[[record]]
compound = "CSc1ccc2c(c1)N(CCCN1CCN(CCOc3ccc(OCCCCCNC(C)C)cc3)CC1)c1ccccc1S2.O=C(O)/C=C\\C(=O)O.O=C(O)/C=C\\C(=O)O.O=C(O)/C=C\\C(=O)O [trimaleate]"
result = "60%"


Okay, here is my list. What is inhibition in vivo at 40 mg/kg for each of these?
1. CC(C)NCCCCc1ccc(OCCN2CCN(CCCN3c4ccccc4Sc4ccc(Cl)cc43)CC2)cc1
2. CC(C)NCCCCCOc1ccc(OCCN2CCN(CCCN3c4ccccc4Sc4ccc(Cl)cc43)CC2)cc1
3. CC(C)NC[C@@H](O)COc1ccc(OCCN2CCN(CCCN3c4ccccc4Sc4ccc(Cl)cc43)CC2)cc1.Cl.Cl.Cl [trihydrochloride]
4. Cl.Cl.Cl.NCCCOc1ccc(OCCN2CCN(CCCN3c4ccccc4Sc4ccc(Cl)cc43)CC2)cc1 [trihydrochloride]

[out]
100%
97%
37%
90%

---

For each record, write down the corresponding inhibition in vivo at 40 mg/kg.
Test system: avoidance behavior
protocol: Discrete Avoidance - Rats (avoidance block / escape block)
Assay type: in vivo, rat
conditions: Rattus norvegicus; 40 mg/kg po, at the indicated duration; read-out: Avoidance block at Duration of Sig. Activity (AB)
Where a name gives a salt, the structure may show the parent alone.
Answers are plain numbers, in %.

[[record]]
compound = "CC(C)NCCCCCCOc1ccc(OCCN2CCN(CCCN3c4ccccc4Sc4ccc(Cl)cc43)CC2)cc1 [trihydrochloride]"
reported_endpoint = "inhibition in vivo at 40 mg/kg"
numeric_readout = 30


Okay, here is my list. What is inhibition in vivo at 40 mg/kg for each of these?
1. CC(C)NCCCCOc1ccc(OCCN2CCN(CCCN3c4ccccc4Sc4ccc(Cl)cc43)CC2)cc1.Cl.Cl.Cl [trihydrochloride]
2. CC(C)NCCCc1ccc(OCCN2CCN(CCCN3c4ccccc4Sc4ccc(Cl)cc43)CC2)cc1.Cl.Cl.Cl [trihydrochloride]
3. CC(C)NCCCOc1ccc(OCCN2CCN(CCCN3c4ccccc4Sc4ccc(Cl)cc43)CC2)cc1 [trihydrochloride]

[out]
30
55
50
